B1: SH3 and PX domain-containing protein 2B, residues 155 to 209; numbered along this chain, A1X283 (parent)
chain: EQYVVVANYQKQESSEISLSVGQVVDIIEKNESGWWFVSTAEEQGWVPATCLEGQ

Variants of: B1
procedure_summary: abundance fitness (aPCA) (normalised: wild type 0, dead -1); higher = more abundant; growth selection in yeast, the domain comes from the species named
condition_parameters: Homo sapiens
Provide the reported abundance fitness of each item.
Response field accepts a number only; no unit should be typed.

Prompt: Which abundance fitness value is on record for S20K ?
Response: -0.075

Prompt: Which abundance fitness value is on record for Q44T ?
Response: -0.101

Prompt: Which abundance fitness value is on record for S14K ?
Response: 0.026

Prompt: Which abundance fitness value is on record for W35I ?
Response: -0.195

Prompt: Which abundance fitness value is on record for I27M ?
Response: -0.185

Prompt: Which abundance fitness value is on record for L19D ?
Response: -0.894

Prompt: Which abundance fitness value is on record for E42M ?
Response: -0.048

Prompt: Which abundance fitness value is on record for E29A ?
Response: -0.056

Prompt: Which abundance fitness value is on record for Q44R ?
Response: 0.001

Prompt: Which abundance fitness value is on record for S15D ?
Response: 0.02

Prompt: Which abundance fitness value is on record for Q10R ?
Response: -0.071

Prompt: Which abundance fitness value is on record for A7Q ?
Response: -0.106

Prompt: Which abundance fitness value is on record for E43Q ?
Response: 0.065

Prompt: Which abundance fitness value is on record for E1K ?
Response: 0.042

Prompt: Which abundance fitness value is on record for E42K ?
Response: -0.057

Prompt: Which abundance fitness value is on record for N8G ?
Response: 0.012

Prompt: Which abundance fitness value is on record for V6N ?
Response: -0.214

Prompt: Which abundance fitness value is on record for F37T ?
Response: -0.472

Prompt: Which abundance fitness value is on record for E32W ?
Response: -0.353

Prompt: Which abundance fitness value is on record for W35D ?
Response: -0.182

Prompt: Which abundance fitness value is on record for Q23I ?
Response: -0.308

Prompt: Which abundance fitness value is on record for V4M ?
Response: -0.463
